Test system: HeLa (cervical cancer)
Test: MTT cell viability assay, HeLa
Assay type: cell-based, human
Details: Homo sapiens, HeLa; MTT, 72 h
Label key: 1 means IC50 under 40 µM; -1 means IC50 of 40 µM or more.

Worked cases, answers included:
- Cc1cc(S(=O)(=O)NC(N)=NN=C(C=Cc2ccccc2O)c2ccccc2)c(SCc2ccccc2Cl)cc1Cl: 1
- Cc1cc(S(=O)(=O)NC(N)=NN=C(C=Cc2ccccc2)c2ccccc2)c(SCc2ccccc2)cc1Cl: -1
- Cc1cc(S(=O)(=O)NC(N)=NN=C(C=Cc2ccccc2O)c2ccccc2)c(SCc2cccc(Cl)c2)cc1Cl: 1
- COc1ccc(C=CC(=NN=C(N)NS(=O)(=O)c2cc(C)c(Cl)cc2SCc2ccc(Cl)cc2)c2ccccc2)cc1: -1
- Cc1cc(S(=O)(=O)NC(N)=NN=C(C=Cc2ccc(O)cc2)c2ccccc2)c(SCc2ccc(Cl)cc2)cc1Cl: 1

// next entry
Lookup: Hello, is IC50 of the following compound strictly smaller than 40 µM? Cc1cc(S(=O)(=O)NC(N)=NN=C(C=Cc2ccc([N+](=O)[O-])cc2)c2ccccc2)c(SCc2ccccc2)cc1Cl
Found: -1

====

Test system: MCF-7 (breast cancer)
Experiment: MTT cell viability assay, MCF-7
Type: cell-based, human
Details: MCF-7 versus HaCaT, from IC50 values
Readings of Selectivity Index MCF-7/HaCaT for the listed compounds
Number only, please.

Consider the following illustrative entries.
• Cc1cc(S(=O)(=O)NC(N)=NN=C(C=Cc2ccccc2O)c2ccccc2)c(SCc2cccc(Cl)c2)cc1Cl = 2.9
• Cc1cc(S(=O)(=O)NC(N)=NN=C(C=Cc2ccc(O)cc2)c2ccccc2)c(SCc2ccccc2Cl)cc1Cl = 2.2
• Cc1cccc(CSc2cc(Cl)c(C)cc2S(=O)(=O)NC(N)=NN=C(C=Cc2ccc(O)cc2)c2ccccc2)c1 = 2.1
• Cc1cc(S(=O)(=O)NC(N)=NN=C(C=Cc2ccc(O)cc2)c2ccccc2)c(SCc2ccccc2)cc1Cl = 2.1
• Cc1cc(S(=O)(=O)NC(N)=NN=C(C=Cc2ccccc2O)c2ccccc2)c(SCc2ccc(Cl)cc2)cc1Cl = 2.4

Lookup: Requested read-out: Selectivity Index MCF-7/HaCaT. Entry: Cc1cc(S(=O)(=O)NC(N)=NN=C(C=Cc2ccccc2O)c2ccccc2)c(SCc2ccccc2)cc1Cl
Found: 1.9

Lookup: Requested read-out: Selectivity Index MCF-7/HaCaT. Entry: Cc1cccc(CSc2cc(Cl)c(C)cc2S(=O)(=O)NC(N)=NN=C(C=Cc2ccccc2O)c2ccccc2)c1
Found: 2.0

====

System: HaCaT cells
Assay: MTT assay with non-cancerous HaCaT cell line
Type: cell-based
Conditions: Homo sapiens, HaCaT, 72 h
MEASUREMENT TYPE: IC50 (µM)
Form entry: value (µM) — number only.

- Cc1cc(S(=O)(=O)NC(N)=NN=C(C=Cc2ccccc2O)c2ccccc2)c(SCc2cccc(Cl)c2)cc1Cl [Compound 26]: 38

Lookup: Notebook entry, HaCaT cells assay: IC50 of Cc1cc(S(=O)(=O)NC(N)=NN=C(C=Cc2ccc(O)cc2)c2ccccc2)c(SCc2ccccc2)cc1Cl [Compound 10] = ?
Found: 31

Lookup: Notebook entry, HaCaT cells assay: IC50 of Cc1cc(S(=O)(=O)NC(N)=NN=C(C=Cc2ccc(O)cc2)c2ccccc2)c(SCc2ccccc2Cl)cc1Cl [Compound 25] = ?
Found: 41

Lookup: Notebook entry, HaCaT cells assay: IC50 of Cc1cc(S(=O)(=O)NC(N)=NN=C(C=Cc2ccccc2O)c2ccccc2)c(SCc2ccccc2)cc1Cl [Compound 9] = ?
Found: 35

Lookup: Notebook entry, HaCaT cells assay: IC50 of Cc1cc(S(=O)(=O)NC(N)=NN=C(C=Cc2ccc(O)cc2)c2ccccc2)c(SCc2ccc(Cl)cc2)cc1Cl [Compound 30] = ?
Found: 85

Lookup: Notebook entry, HaCaT cells assay: IC50 of Cc1cc(S(=O)(=O)NC(N)=NN=C(C=Cc2ccc(O)cc2)c2ccccc2)c(SCc2ccccc2C)cc1Cl [Compound 15] = ?
Found: 33

Lookup: Notebook entry, HaCaT cells assay: IC50 of Cc1cc(S(=O)(=O)NC(N)=NN=C(C=Cc2ccccc2O)c2ccccc2)c(SCc2ccccc2Cl)cc1Cl [Compound 24] = ?
Found: 33

Sourced from paper PMC10002375
